Target: CDK16/Cyclin Y (Homo sapiens)
Sequence (Q00536 whole entry): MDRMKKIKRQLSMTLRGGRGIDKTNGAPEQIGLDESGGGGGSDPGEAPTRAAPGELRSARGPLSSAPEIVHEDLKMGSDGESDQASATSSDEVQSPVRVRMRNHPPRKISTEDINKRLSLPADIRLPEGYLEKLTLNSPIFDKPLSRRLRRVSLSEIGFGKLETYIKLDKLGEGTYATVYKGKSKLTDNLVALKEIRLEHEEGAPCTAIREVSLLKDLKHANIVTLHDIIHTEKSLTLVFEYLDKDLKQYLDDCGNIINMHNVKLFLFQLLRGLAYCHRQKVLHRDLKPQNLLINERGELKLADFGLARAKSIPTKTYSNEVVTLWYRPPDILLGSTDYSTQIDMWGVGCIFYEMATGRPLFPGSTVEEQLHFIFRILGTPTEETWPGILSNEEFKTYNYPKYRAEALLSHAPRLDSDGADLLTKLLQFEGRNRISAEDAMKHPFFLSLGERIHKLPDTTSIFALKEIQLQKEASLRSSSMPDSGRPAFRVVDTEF
Sequence (Q8ND76 whole entry partner): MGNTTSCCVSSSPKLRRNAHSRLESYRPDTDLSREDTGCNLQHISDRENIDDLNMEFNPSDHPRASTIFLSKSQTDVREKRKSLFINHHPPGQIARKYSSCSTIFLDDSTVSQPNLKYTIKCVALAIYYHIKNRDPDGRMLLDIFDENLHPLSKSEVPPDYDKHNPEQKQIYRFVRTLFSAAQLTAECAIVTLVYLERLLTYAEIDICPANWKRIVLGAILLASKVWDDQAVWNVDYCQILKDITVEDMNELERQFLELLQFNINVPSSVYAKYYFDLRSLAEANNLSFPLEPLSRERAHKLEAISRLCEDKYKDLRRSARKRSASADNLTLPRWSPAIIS
Test: NanoBRET live-cell target engagement, CDK16-NanoLuc/Cyclin Y in HEK-293
Type: binding
Conditions: CDK16/Y; 10µM
observable: Inhibition at 10µM (%) Replicate 1
Kindly answer with a numeric value in %, unit omitted.

Data request: Fill blank: measured Inhibition at 10µM (%) Replicate 1 of the compound CCC(CO)Nc1nc(Nc2cccc(-c3ccccn3)c2)c2ncn(C(C)C)c2n1.Cl.O [(R) - DRF053] is ____.
Data returned: 15.7

Data request: And "O=C(Nc1c[nH]nc1-c1ccccn1)c1nn(C2CCNCC2)cc1Cl" ?
Data returned: 4.2

Data request: Query "CC(C)c1cnn2c(NCc3ccccc3)cc(N[C@@H](CO)[C@H](O)CO)nc12" next
Data returned: 82.0

Data request: Then this compound: CNC1CCN(C(=O)c2ccc(Nc3ncc(F)c(-c4cnc(C)n4C(C)C)n3)cc2)C1 (stereo not shown)
Data returned: 88.2

====

Molecular target: CDK15/Cyclin Y (Homo sapiens)
Sequence (Q96Q40 whole entry, one chain of several): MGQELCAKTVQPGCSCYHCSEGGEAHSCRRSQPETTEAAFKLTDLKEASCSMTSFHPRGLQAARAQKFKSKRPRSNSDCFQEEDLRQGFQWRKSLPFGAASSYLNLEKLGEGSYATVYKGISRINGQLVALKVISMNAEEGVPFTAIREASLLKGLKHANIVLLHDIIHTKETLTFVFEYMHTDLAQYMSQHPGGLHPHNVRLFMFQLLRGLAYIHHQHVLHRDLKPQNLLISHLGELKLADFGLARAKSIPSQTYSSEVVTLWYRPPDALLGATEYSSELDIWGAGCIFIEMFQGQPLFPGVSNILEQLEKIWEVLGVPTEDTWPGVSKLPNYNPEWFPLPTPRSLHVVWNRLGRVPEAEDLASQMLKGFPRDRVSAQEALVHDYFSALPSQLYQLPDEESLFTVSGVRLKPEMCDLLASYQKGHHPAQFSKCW
Test: NanoBRET live-cell target engagement, NanoLuc-CDK15/Cyclin Y in HEK-293
Assay type: binding
Conditions: CDK15/Y; experiment 3; read-out: IC50
observable: pIC50
On this scale, pIC50 is minus log10 of a concentration expressed in M (mol/L).

Data request: Entry COc1ccc(F)cc1-c1cc(NC(=O)C2CCCNC2)ncc1Cl (stereo not drawn) : reported pIC50 = ?
Data returned: 6.19

Data request: Another: CC(C)c1cnn2c(NCc3ccccc3-n3cccn3)nc(OC3CCCNC3)nc12 (stereo not drawn)
Data returned: 6.71

Data request: Next: "CNC(=O)c1nn(C)c2c1C(C)(C)Cc1cnc(Nc3ccc(N4CCN(C)CC4)cc3)nc1-2"
Data returned: 6.11

====

Exercise: for every item that follows, state its recorded pIC50.
Molecular target: CDK1/Cyclin E1 (Homo sapiens, UniProt P06493)
Sequence (P06493 whole entry): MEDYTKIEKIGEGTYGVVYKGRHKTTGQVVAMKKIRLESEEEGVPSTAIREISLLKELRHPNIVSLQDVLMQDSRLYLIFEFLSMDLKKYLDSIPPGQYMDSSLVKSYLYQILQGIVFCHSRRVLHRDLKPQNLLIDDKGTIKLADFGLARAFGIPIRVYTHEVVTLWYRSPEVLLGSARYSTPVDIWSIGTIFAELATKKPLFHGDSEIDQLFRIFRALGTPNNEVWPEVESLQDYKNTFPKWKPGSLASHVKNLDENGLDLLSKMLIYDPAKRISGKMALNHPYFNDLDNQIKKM
Sequence (P24864 whole entry partner): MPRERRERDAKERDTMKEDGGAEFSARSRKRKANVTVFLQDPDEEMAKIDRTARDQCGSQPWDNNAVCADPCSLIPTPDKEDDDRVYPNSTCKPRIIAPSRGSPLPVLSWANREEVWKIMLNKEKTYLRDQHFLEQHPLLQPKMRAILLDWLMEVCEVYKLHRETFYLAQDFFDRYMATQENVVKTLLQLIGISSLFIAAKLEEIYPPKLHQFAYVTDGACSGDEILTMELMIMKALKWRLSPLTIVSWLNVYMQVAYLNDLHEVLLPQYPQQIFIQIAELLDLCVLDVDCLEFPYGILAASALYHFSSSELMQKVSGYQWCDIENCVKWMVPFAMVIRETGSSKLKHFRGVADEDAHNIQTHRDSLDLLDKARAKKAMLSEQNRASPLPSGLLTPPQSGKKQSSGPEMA
Assay: NanoBRET live-cell target engagement, CDK1-NanoLuc/Cyclin E1 in HEK-293
Type: binding
Details: independent experiment 2; read-out: CDK1/E1 IC50
Please express pIC50 as -log10 of the molar concentration.

Data request: Return pIC50 measured with CDK1/Cyclin E1 (Homo sapiens, UniProt P06493) given this compound: CN1C/C=C/CCOc2cccc(c2)-c2ccnc(n2)Nc2cccc(c2)C1 [SB1317]
Data returned: 6.68

Data request: Lookup CC(C)CC(=O)Nc1[nH]nc2c1CN(C(=O)C1CCN(C)CC1)C2(C)C [PHA-793887]
Data returned: 6.07

Data request: Same question, COCCN1CCN(Cc2ccc(-c3n[nH]c4c3C(=O)c3c(NC(=O)NN5CCOCC5)cccc3-4)cc2)CC1 [RGB286638] this time
Data returned: 7.39

====

Molecular target: CDK11B/Cyclin L2 (Homo sapiens, UniProt P21127)
Sequence (P21127 1-782 isoform P21127-2): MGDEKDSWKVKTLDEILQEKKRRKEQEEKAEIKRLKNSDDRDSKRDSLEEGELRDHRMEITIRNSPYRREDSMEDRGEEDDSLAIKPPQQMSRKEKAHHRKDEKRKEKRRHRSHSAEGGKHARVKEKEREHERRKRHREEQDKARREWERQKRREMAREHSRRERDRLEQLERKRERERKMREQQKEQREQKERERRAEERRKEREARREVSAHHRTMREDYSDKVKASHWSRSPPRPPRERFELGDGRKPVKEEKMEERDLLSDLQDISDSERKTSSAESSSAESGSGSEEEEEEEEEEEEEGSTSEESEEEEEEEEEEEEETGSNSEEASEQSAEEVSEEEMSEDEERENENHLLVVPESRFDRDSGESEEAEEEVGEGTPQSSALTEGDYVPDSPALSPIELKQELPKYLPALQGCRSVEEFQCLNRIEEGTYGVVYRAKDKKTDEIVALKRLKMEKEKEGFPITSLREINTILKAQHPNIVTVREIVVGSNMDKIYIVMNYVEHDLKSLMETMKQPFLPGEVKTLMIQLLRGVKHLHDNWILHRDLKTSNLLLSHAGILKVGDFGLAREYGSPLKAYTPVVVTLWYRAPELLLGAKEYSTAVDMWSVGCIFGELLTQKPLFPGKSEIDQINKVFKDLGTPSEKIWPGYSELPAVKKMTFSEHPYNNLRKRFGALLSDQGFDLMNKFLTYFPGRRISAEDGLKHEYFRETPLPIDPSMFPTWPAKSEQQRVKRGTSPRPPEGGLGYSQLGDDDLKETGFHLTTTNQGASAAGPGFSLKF
Test: NanoBRET live-cell target engagement, CDK11B-NanoLuc/Cyclin L2 in HEK-293
Type: binding
Details: CDK11b/L2; experiment 1; read-out: IC50
observable: pIC50
A value of pIC50 is the negative decimal logarithm of a concentration given in moles per litre.

Data request: Query the reported pIC50 for CDK11B/Cyclin L2 (Homo sapiens, UniProt P21127); item: "CS(=O)(=O)N1CCC(NC(=O)c2[nH]ncc2NC(=O)c2c(Cl)cccc2Cl)CC1"
Data returned: 7.46

Data request: Repeat with "CC(C)c1c2cc(-c3ccnc(N[C@H]4CC[C@H](NC5CCOCC5)CC4)n3)ccc2nn1C"
Data returned: 7.68

Data request: Now consider COc1ccc(F)cc1-c1cc(NC(=O)C2CCCNC2)ncc1Cl (stereo not shown) and answer again.
Data returned: 8.05

Data request: Now try CC(C)c1cnn2c(NCc3ccccc3-n3cccn3)nc(OC3CCCNC3)nc12 (stereo not shown) .
Data returned: 6.06

====

Biological target: CDK10/Cyclin L2 (Homo sapiens, UniProt Q15131)
Sequence (Q15131 whole entry): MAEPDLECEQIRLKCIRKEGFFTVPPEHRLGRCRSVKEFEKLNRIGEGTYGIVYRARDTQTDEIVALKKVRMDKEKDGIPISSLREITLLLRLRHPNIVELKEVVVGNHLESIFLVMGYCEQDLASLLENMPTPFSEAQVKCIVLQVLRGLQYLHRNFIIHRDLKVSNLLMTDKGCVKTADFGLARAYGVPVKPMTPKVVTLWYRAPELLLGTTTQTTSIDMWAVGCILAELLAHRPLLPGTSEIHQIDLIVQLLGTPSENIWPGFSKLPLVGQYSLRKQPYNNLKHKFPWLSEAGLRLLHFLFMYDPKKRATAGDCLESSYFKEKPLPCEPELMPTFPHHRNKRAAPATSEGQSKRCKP
Experiment: NanoBRET live-cell target engagement, CDK10-NanoLuc/Cyclin L2 in HEK-293
Details: CDK10/L2; experiment 1
observable: Inhibition at 10µM (%)
Kindly provide the numeric value in % only, without the unit symbol.

Data request: Recorded Inhibition at 10µM (%) of "CNc1nc(C)c(-c2nc(Nc3cccc(S(N)(=O)=O)c3)ncc2F)s1" , please.
Data returned: 36.9

Data request: One more compound: CCn1cnc2c(Nc3cccc(Cl)c3)nc(N[C@@H]3CCCC[C@@H]3N)nc21 [CGP74514A]
Data returned: 37.4

Data request: Now consider CN1CCC(c2c(O)cc(O)c3c(=O)cc(-c4ccccc4Cl)oc23)C1CO (stereo not drawn) .
Data returned: 10.1

Data request: // next record "CS(=O)(=O)N1CCC(NC(=O)c2[nH]ncc2NC(=O)c2c(Cl)cccc2Cl)CC1"
Data returned: 74.4

Data request: Please give the result for CC(C)c1cnn2c(NCc3ccccc3-n3cccn3)nc(OC3CCCNC3)nc12 (stereo not drawn) too.
Data returned: 25.4

Data request: // query: "CC(C)c1c2cc(-c3ccnc(N[C@H]4CC[C@H](NC5CCOCC5)CC4)n3)ccc2nn1C"
Data returned: 81.9

====

Give measured IC50 for each item. Keep answers brief.
Molecular target: CDK17/Cyclin Y (Homo sapiens)
Sequence (Q00537 whole entry, one chain of several): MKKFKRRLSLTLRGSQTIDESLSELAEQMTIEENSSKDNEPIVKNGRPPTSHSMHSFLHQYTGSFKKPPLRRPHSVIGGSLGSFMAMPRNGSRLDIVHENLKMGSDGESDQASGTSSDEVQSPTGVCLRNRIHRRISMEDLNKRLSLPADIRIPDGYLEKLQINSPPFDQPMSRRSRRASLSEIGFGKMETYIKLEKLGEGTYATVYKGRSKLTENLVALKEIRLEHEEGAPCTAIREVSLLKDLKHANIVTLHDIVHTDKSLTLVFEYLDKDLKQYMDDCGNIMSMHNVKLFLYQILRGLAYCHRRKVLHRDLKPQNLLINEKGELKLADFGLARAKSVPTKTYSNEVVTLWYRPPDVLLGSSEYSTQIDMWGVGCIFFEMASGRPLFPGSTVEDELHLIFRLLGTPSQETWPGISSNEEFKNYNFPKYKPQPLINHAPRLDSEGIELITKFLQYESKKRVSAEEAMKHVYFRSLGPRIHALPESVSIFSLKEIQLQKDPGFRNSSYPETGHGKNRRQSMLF
Test: NanoBRET live-cell target engagement, CDK17-NanoLuc/Cyclin Y in HEK-293
Format: binding
Settings: CDK17/Y; experiment 3; read-out: IC50
Give just the numeric value; nM need not be written.

Data request: What value of IC50 has been reported for the following molecule? CC(C)c1cnn2c(NCc3ccccc3-n3cccn3)nc(OC3CCCNC3)nc12 (stereo not shown)
Data returned: 242

Data request: Now consider "CN1CCN(c2ccc(Nc3ncc4cc(C#N)c(=O)n(C5CCCC5)c4n3)cc2)CC1" .
Data returned: 44

Data request: Follow-up item: COc1ccc(F)cc1-c1cc(NC(=O)C2CCCNC2)ncc1Cl (stereo not shown)
Data returned: 99

Data request: Cool, now "CN1CCN(Cc2ccc(NC(=O)Nc3ccc(Oc4ccnc(N)n4)cc3)cc2C(F)(F)F)CC1"
Data returned: 200

====

I'd be grateful if you could share measured pIC50 for these entries.
Biological target: CDK1/Cyclin E1 (Homo sapiens, UniProt P06493)
Test: NanoBRET live-cell target engagement, CDK1-NanoLuc/Cyclin E1 in HEK-293
Type: binding
Conditions: average (± SEM where n=3); read-out: CDK1/E1 IC50
# pIC50 = -log10(concentration in molar units)

Data request: Entry under review: "CN1C/C=C/CCOc2cccc(c2)-c2ccnc(n2)Nc2cccc(c2)C1" . Reported pIC50?
Data returned: 6.70

Data request: Repeat with "CC(C)CC(=O)Nc1[nH]nc2c1CN(C(=O)C1CCN(C)CC1)C2(C)C"
Data returned: 6.09

Data request: Another molecule to check: "COCCN1CCN(Cc2ccc(-c3n[nH]c4c3C(=O)c3c(NC(=O)NN5CCOCC5)cccc3-4)cc2)CC1"
Data returned: 7.41

====

Molecular target: CDK1/Cyclin E1 (Homo sapiens)
Assay: NanoBRET live-cell target engagement, CDK1-NanoLuc/Cyclin E1 in HEK-293
Assay type: binding
Conditions: CDK1/E1; 10µM
Kindly state Inhibition at 10µM (%) Replicate 1 for each of the entries shown.
Respond with the bare value in %.

Data request: Using the record for O=C(Nc1c[nH]nc1-c1ccccn1)c1nn(C2CCNCC2)cc1Cl [BDP5290] , report its Inhibition at 10µM (%) Replicate 1.
Data returned: 19.1

Data request: Next compound: CC(C)c1cnn2c(NCc3ccccc3)cc(N[C@@H](CO)[C@H](O)CO)nc12 [BS-194]
Data returned: 72.5

Data request: Now consider CNC1CCN(C(=O)c2ccc(Nc3ncc(F)c(-c4cnc(C)n4C(C)C)n3)cc2)C1 (stereo not shown) [AZD5597] .
Data returned: 93.8

Data request: Repeat with CCC(CO)Nc1nc(Nc2cccc(-c3ccccn3)c2)c2ncn(C(C)C)c2n1.Cl.O [(R) - DRF053]
Data returned: 46.5

====

Can you tell me inhibition at 10 µM for the items I'm about to list?
Target: CDK20/Cyclin H (Homo sapiens)
Sequence (Q8IZL9 whole entry): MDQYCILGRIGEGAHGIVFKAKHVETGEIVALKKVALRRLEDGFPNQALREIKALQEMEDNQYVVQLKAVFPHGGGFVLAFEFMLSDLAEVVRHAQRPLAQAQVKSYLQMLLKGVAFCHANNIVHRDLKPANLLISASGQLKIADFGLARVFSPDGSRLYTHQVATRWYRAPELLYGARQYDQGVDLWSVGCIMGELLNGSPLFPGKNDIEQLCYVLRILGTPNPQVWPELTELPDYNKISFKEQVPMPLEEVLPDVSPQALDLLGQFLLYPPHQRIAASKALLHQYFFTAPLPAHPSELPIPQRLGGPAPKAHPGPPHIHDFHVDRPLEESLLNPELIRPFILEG
Sequence (P51946 whole entry partner): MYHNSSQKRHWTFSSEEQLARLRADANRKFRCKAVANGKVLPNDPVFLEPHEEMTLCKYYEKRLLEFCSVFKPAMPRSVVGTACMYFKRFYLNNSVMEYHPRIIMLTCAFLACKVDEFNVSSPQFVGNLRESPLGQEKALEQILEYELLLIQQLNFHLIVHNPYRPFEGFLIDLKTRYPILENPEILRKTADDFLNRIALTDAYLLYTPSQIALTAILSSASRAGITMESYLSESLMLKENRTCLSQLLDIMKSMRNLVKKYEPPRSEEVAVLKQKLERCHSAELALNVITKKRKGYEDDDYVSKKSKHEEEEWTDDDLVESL
Assay: NanoBRET live-cell target engagement, NanoLuc-CDK20/Cyclin H in HEK-293
Type: binding
Details: CDK20/H; experiment 2; read-out: Inhibition at 10µM (%)
# output: number + unit

Data request: Looking for the measured inhibition at 10 µM of CC(C)N1CCN(c2ccc(Nc3ncc4cc5n(c4n3)C3(CCCCC3)CNC5=O)nc2)CC1 [Lerociclib] , can you help?
Data returned: 7.2%

Data request: Param item: CC(C)(C)c1nc(-c2cccc(NS(=O)(=O)c3c(F)cccc3F)c2F)c(-c2ccnc(N)n2)s1 [Dabrafenib]
Data returned: 6.7%

Data request: Same read-out for CN1CC[C@H](c2c(O)cc(O)c3c(=O)cc(-c4ccccc4Cl)oc23)[C@H](O)C1 [Flavopiridol] ?
Data returned: 6.5%

Data request: # repeat for CC(C)c1cnn2c(NCc3ccccc3)cc(NC[C@H]3CCNC[C@@H]3O)nc12 [CT7001]
Data returned: 33.8%

Data request: Likewise for CN1CCN(Cc2ccc(NC(=O)Nc3ccc(Oc4ccnc(N)n4)cc3)cc2C(F)(F)F)CC1 [K03861] ?
Data returned: 64.4%

Data request: Request: COc1ccc(F)cc1-c1cc(NC(=O)C2CCCNC2)ncc1Cl (stereo not shown) [CDK inhibitor 2]
Data returned: 27.3%

Data request: Follow-up item: CN1CCN(c2ccc(Nc3ncc4cc(C#N)c(=O)n(C5CCCC5)c4n3)cc2)CC1 [ON123300]
Data returned: 26.8%

Data request: Proceed to CNC(=O)c1nn(C)c2c1C(C)(C)Cc1cnc(Nc3ccc(N4CCN(C)CC4)cc3)nc1-2 [Milciclib]
Data returned: 36.3%

Data request: Queued: N#CCNC(=O)c1ccc(-c2ccnc(Nc3ccc(N4CCOCC4)cc3)n2)cc1 [Momelotinib]
Data returned: -4.4%

Data request: Also need Cn1cc(-c2ccc(-c3cncc(Cl)c3N3CCC4(CCNC4=O)CC3)cc2)cn1 [CCT251545] , thanks.
Data returned: 5.3%
